Where these numbers come from: patent US20250129103A1

measurementDescription: Determination of logD (1-octanol / phosphate buffer pH 7.4)
Assay type: physicochemical
assaySetup: 1-octanol/phosphate buffer, pH 7.4, pH 7.4, 1-octanol/phosphate buffer; read-out: Log D, pH 7.4
Think of 3 as a floor: if logD stands on it or above, it is true; beneath it, false.

Ask | Evaluate N#CC[C@H]1CN(c2nc(OC[C@@]34CCCN3C[C@H](F)C4)nc3c(F)c(-c4cccc(Cl)c4C(F)(F)F)ncc23)CCN1C(=O)/C=C/CN1CCCOCC1 : logD at minimum 3?
Reply | false

Ask | Can CCc1nccc(/C=C/C(=O)N2CCN(c3nc(OC[C@@]45CCCN4C[C@H](F)C5)nc4c(F)c(-c5cccc6ccc(F)c(Cl)c56)ncc34)C[C@@H]2CC#N)n1 be said to have logD at or above 3?
Reply | true

Ask | For this compound, is measured logD 3 or higher? N#CC[C@H]1CN(c2nc(OC[C@@]34CCCN3C[C@H](O)C4)nc3c(F)c(-c4cccc5cccc(Cl)c45)ncc23)CCN1C(=O)/C=C/CN1CCOCC1
Reply | false

Ask | Exam item: decide whether the reported logD for Cc1nccc(/C=C/C(=O)N2CCN(c3nc(OC[C@@]45CCCN4C[C@H](F)C5)nc4c(F)c(-c5nc(N)cc(C)c5C(F)(F)F)ncc34)C[C@@H]2CC#N)n1 is at least 3.
Reply | false
